# SYSTEM UNDER TEST: panel of more than 300 wild-type and mutant kinases (313 kinase panel) (Homo sapiens)
# Sequence (P52333 whole entry, change not shown): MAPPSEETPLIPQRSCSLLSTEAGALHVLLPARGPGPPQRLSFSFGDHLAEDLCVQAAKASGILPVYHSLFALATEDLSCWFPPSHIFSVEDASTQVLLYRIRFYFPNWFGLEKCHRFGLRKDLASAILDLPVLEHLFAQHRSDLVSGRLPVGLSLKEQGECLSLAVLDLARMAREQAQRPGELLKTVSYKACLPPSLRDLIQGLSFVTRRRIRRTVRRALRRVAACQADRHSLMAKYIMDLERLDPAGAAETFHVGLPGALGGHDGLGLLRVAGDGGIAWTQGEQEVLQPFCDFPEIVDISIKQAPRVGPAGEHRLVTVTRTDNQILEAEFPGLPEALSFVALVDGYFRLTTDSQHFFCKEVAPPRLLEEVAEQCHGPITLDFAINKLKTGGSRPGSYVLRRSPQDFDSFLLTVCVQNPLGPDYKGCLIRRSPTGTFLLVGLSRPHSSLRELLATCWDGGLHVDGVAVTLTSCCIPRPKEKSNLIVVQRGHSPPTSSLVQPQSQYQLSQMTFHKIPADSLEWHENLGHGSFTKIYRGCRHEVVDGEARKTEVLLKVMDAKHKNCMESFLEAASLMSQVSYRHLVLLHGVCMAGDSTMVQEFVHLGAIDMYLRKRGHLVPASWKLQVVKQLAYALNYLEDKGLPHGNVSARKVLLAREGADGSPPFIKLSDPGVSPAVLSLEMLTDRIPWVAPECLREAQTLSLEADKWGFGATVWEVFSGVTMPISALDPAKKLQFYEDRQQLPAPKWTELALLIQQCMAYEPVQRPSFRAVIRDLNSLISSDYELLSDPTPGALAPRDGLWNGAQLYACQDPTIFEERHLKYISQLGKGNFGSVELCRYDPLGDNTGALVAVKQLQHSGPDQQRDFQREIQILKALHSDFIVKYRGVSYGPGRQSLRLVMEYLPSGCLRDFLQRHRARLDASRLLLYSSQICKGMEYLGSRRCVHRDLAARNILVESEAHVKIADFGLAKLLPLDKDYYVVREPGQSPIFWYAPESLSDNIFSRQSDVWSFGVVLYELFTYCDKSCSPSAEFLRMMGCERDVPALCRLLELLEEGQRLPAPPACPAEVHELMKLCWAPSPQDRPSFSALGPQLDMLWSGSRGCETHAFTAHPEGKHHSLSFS
# ASSAY COMMENT: Kinase profiling in a biochemical assay panel (mobility shift assays and ELISA), %-inhibition at 1 μM; selectivity entropy
# CONDITIONS: kinase JAK3; compound at 1 μM
MEASURE: %-inhibition of JAK3 (%)
State the answer as a number, implicitly in %.

Record COc1cc2c(Nc3ccc(Br)cc3F)ncnc2cc1OCC1CCN(C)CC1 , field %-inhibition of JAK3: 2.34

The recorded %-inhibition of JAK3 for CNC(=O)c1cc(Oc2ccc(NC(=O)Nc3ccc(Cl)c(C(F)(F)F)c3)c(F)c2)ccn1 is 31

The molecule listed as CCCS(=O)(=O)Nc1ccc(F)c(C(=O)c2c[nH]c3ncc(-c4ccc(Cl)cc4)cc23)c1F has a reported %-inhibition of JAK3 of 10

Lookup result for CO[C@H]1C[C@@H]2CC[C@@H](C)[C@@](O)(O2)C(=O)C(=O)N2CCCC[C@H]2C(=O)O[C@H]([C@H](C)C[C@@H]2CC[C@@H](OC(=O)C(C)(CO)CO)[C@H](OC)C2)CC(=O)[C@H](C)/C=C(\C)[C@@H](O)[C@@H](OC)C(=O)[C@H](C)C[C@H](C)/C=C/C=C/C=C/1C ; measured %-inhibition of JAK3: -2

Value of %-inhibition of JAK3 reported for the molecule CO[C@H]1C[C@@H]2CC[C@@H](C)[C@@](O)(O2)C(=O)C(=O)N2CCCC[C@H]2C(=O)O[C@H]([C@H](C)C[C@@H]2CC[C@@H](OCCO)[C@H](OC)C2)CC(=O)[C@H](C)/C=C(\C)[C@@H](O)[C@@H](OC)C(=O)[C@H](C)C[C@H](C)/C=C/C=C/C=C/1C is -4.43

Please fill in: %-inhibition of JAK3 reported for Cc1cn(-c2cc(NC(=O)c3ccc(C)c(Nc4nccc(-c5cccnc5)n4)c3)cc(C(F)(F)F)c2)cn1 = 2.15

Noted for CS(=O)(=O)CCNCc1ccc(-c2ccc3ncnc(Nc4ccc(OCc5cccc(F)c5)c(Cl)c4)c3c2)o1 : its %-inhibition of JAK3 reads -6
